Assignment: determine reported potency estimated from few doses for the given molecules.
tested on: LYN; parameters: species or system human, MV4-11 + K-562 + COLO205 + SK-N-BE2 + OVCAR-8; conditions: read-out: apparent Kd; compound concentrations:100 nM and 1000 nM (sheet 'Samples'); n = 1
Answers are plain numbers, in nM.

molecule	units_label	potency estimated from few doses
Cl.Cl.NCC(C(=O)Nc1cc(Br)c(-c2ccnc3[nH]ccc23)s1)c1ccccc1.NCC(C(=O)Nc1cc(Br)c(-c2ccnc3[nH]ccc23)s1)c1ccccc1 (stereo not shown) [GSK1269851A]	nM	586
NCCNS(=O)(=O)c1ccc(-c2ccnc3[nH]ccc23)cc1 [GSK977617A]	nM	936
Cc1ccc2c(-c3ccncc3)c(-c3ccc(F)cc3)nn2c1.Cl [GW461484A]	nM	1010

Then this molecule:
[ask] What value of potency estimated from few doses has been recorded for this entry: CN1C[C@@H]2Cn3c(c(C4=C(c5cn(C)c6ccccc56)C(=O)NC4=O)c4ccccc43)C[C@H]2C1.Cl
[reply] 158

====

tested on: JAK2; set-up: species or system human, MV4-11 + K-562 + COLO205 + SK-N-BE2 + OVCAR-8; conditions: read-out: apparent Kd; compound concentrations:100 nM and 1000 nM (sheet 'Samples'); n = 1
Assignment: determine reported potency estimated from few doses for the given compounds.
Numbers only, in nM.

Before answering, review these 4 worked examples.
compound	units_label	observed_measurement
CNc1nc(-c2ccc3c(N)n[nH]c3c2)cc(N2C[C@@H](C(=O)NC3CCCCC3)CC[C@H]2C)n1	nM	470
NCC1CCC(CNc2nc(NCc3ccccc3OC(F)(F)F)ncc2[N+](=O)[O-])CC1 (stereo not shown) [BIRZ0518XX]	nM	517
CN1CCC(C(=O)Nc2n[nH]c3nnc(-c4ccccc4)cc23)CC1.Cl	nM	721
O=C(O)C(F)(F)F.O=S1CCN(Cc2ccc(-c3ccc4ncnc(Nc5ccc(OCc6cccc(F)c6)c(Cl)c5)c4c3)o2)CC1 [GW576609A]	nM	1050

For every item below, please supply its potency estimated from few doses.
1. Cn1c(=O)c(Oc2ccc(F)cc2F)cc2cnc(NC3CCOCC3)nc21
2. NC(=O)c1sc(-n2cnc3ccc(C(F)(F)F)cc32)cc1OCc1ccccc1Br [GW853606X]
3. CS(=O)(=O)CCn1c(=O)c(Oc2ccc(F)cc2F)cc2cnc(NC3CCOCC3)nc21
4. Nc1ncnc2occ(-c3ccc(NC(=O)Nc4cc(C(F)(F)F)ccc4F)cc3)c12
5. Cl.NCc1ccc(-c2nc(-c3ccc(Cl)c(O)c3)c(-c3ccncc3)[nH]2)cc1
6. CN1CCN(CCNc2nc3cc(Oc4ccc(NC(=O)Nc5cc(C(F)(F)F)ccc5F)cc4)ccc3[nH]2)CC1.CN1CCN(CCNc2nc3cc(Oc4ccc(NC(=O)Nc5cc(C(F)(F)F)ccc5F)cc4)ccc3[nH]2)CC1.Cl.Cl [GW768504A]

[reply]
603
419
65.6
871
347
634

====

target: Q6ZSR9 (human, UniProt Q6ZSR9); parameters: species or system MV4-11 + K-562 + COLO205 + SK-N-BE2 + OVCAR-8; conditions: read-out: apparent Kd; compound concentrations:100 nM and 1000 nM (sheet 'Samples'); n = 1
Sequence (Q6ZSR9 whole entry, looked up): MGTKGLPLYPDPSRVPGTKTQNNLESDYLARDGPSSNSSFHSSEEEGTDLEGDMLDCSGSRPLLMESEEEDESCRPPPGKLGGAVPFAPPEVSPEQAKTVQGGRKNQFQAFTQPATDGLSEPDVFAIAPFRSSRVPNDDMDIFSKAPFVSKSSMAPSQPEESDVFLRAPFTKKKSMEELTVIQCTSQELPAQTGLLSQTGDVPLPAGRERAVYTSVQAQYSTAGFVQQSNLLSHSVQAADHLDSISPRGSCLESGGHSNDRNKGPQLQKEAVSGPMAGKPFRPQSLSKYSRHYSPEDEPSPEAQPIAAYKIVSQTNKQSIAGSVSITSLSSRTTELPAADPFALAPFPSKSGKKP
Assignment: determine reported potency estimated from few doses for the given compounds.
Numbers only, in nM.

compound	potency estimated from few doses, nM
CNc1cc(-c2ccc3c(N)n[nH]c3c2)nc(N)n1 [GSK2224810A]	687
CS(=O)(=O)Nc1ccc(-c2ccnc3[nH]ccc23)cc1 [GSK993273A]	2010
CN(C)C(=O)/C(C#N)=C/c1ccc(-c2nc3cnc4[nH]ccc4c3n2C2CCCCC2)o1	1760

[ask] Provide value of potency estimated from few doses for this record tested with Q6ZSR9 (human, UniProt Q6ZSR9): CC(C)Nc1cc(-c2ccc3c(N)n[nH]c3c2)nc(N)n1 [GSK2221681A]
[reply] 220

====

tested on: SPR; parameters: species or system human, MV4-11 + K-562 + COLO205 + SK-N-BE2 + OVCAR-8; details: compound concentrations:0.3nM, 1nM, 3nM, 10nM, 30nM, 100nM, 300nM, 1000nM,R2:0.99512909296274499,slope:1.24359258072984,EC50 Standard Error, by the legend:Standard error of the EC50 estimation as provided by the drc package.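 Note: competition pulldown with Kinobeads ε in cell lysates, inhibitor preincubated 45 min at 4 °C, bound kinases quantified by LC–MS/MS against DMSO control.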
measured_endpoint: pEC50
Give bare numbers, as −log10 of the molar value.

[ask] What value of pEC50 has been recorded for this entry: Cl.NCc1ccc(-c2nc(-c3ccc(Cl)c(O)c3)c(-c3ccncc3)[nH]2)cc1
[reply] 7.48

====

Assignment: determine reported potency estimated from few doses for the given compounds.
system: EPHA2; parameters: species or system human, MV4-11 + K-562 + COLO205 + SK-N-BE2 + OVCAR-8; conditions: read-out: apparent Kd; compound concentrations:100 nM and 1000 nM (sheet 'Samples'); n = 1
Give bare numbers, in nM.

Before answering, review these 3 worked examples.
compound	potency estimated from few doses (nM)
NCCNS(=O)(=O)c1ccc(-c2ccnc3[nH]ccc23)cc1 [GSK977617A]	441
O=C1NC(=O)C(N2CCc3ccccc32)=C1c1ccccc1Cl	87.4
CC(C)N1CCC(n2cnc(-c3ccc(F)cc3)c2-c2ccnc(N)n2)CC1	735

For every item below, please supply its potency estimated from few doses.
1. CC(=O)N[C@@H](Cc1ccc(OP(=O)(O)O)cc1)C(=O)N[C@H]1CCC(=O)N2CCC[C@@H](C(=O)NCc3ccc(Cl)cc3)N2C1=O
2. CS(=O)(=O)CCn1c(=O)c(Oc2ccc(F)cc2F)cc2cnc(NC3CCOCC3)nc21

[reply]
1. 1130
2. 1060

[ask] What value of potency estimated from few doses has been recorded for this entry: Cl.Cn1c(=O)c(Cc2ccc(F)cc2F)cc2cnc(NC3CCOCC3)nc21
[reply] 1130

====

system: NNT; set-up: species or system human, MV4-11 + K-562 + COLO205 + SK-N-BE2 + OVCAR-8; conditions: read-out: apparent Kd; compound concentrations:100 nM and 1000 nM (sheet 'Samples'); n = 1
Assignment: determine reported potency estimated from few doses for the given compounds.
Give bare numbers, in nM.

For every item below, please supply its potency estimated from few doses.
1. NS(=O)(=O)c1ccc(Nc2ncc(-c3ccccc3)o2)cc1 [GW572399X]
2. CN1CCC(n2cnc(-c3ccc(F)cc3)c2-c2ccnc(N)n2)CC1
3. O=C1NC(=O)C(c2ccc(Cl)cc2)=C1Nc1ccc(O)cc1
4. Fc1cccc(COc2ccc(Nc3ncnc4sc(-c5cccs5)cc34)cc2Cl)c1 [GW684626B]

[reply]
1. 1770
2. 1290
3. 1720
4. 1210

====

Assignment: determine reported potency estimated from few doses for the given compounds.
system: PRKCZ; set-up: species or system human, MV4-11 + K-562 + COLO205 + SK-N-BE2 + OVCAR-8; settings: read-out: apparent Kd; compound concentrations:100 nM and 1000 nM (sheet 'Samples'); n = 1
Numbers only, in µM.

Before answering, review these 3 worked examples.
compound	units_label	potency estimated from few doses
Cc1cc(O)cc(C)c1/C=C/c1cncc(C(N)=O)c1 [GW435821X_KCGS]	µM	1.47
CC(C)Nc1cc(-c2ccc3c(N)n[nH]c3c2)nc(N)n1 [GSK2221681A]	µM	1.52
CCn1c(-c2nonc2N)nc2cncc(Br)c21 [SB-738004]	µM	0.544

Then this compound:
[ask] What value of potency estimated from few doses has been recorded for this entry: COc1cccc(C2=C(Nc3cccc(C(=O)O)c3)C(=O)NC2=O)c1 [SB-390770]
[reply] 1.58

====

tested on: ADCK3; parameters: species or system human, MV4-11 + K-562 + COLO205 + SK-N-BE2 + OVCAR-8; settings: read-out: apparent Kd; compound concentrations:100 nM and 1000 nM (sheet 'Samples'); n = 1
measured_endpoint: potency estimated from few doses

compound	potency estimated from few doses
COc1ccc(-c2cc3c(C)nc(N)nc3n([C@H]3CC[C@H](OCCO)CC3)c2=O)cn1	1460 nM

For every item below, please supply its potency estimated from few doses.
1. Cc1ccc(-n2nc(C(C)(C)C)cc2NC(=O)Nc2ccc(OCCN3CCOCC3)cc2)cc1 [BIRB0876BS]
2. COc1ccc2cc(-c3c(-c4ccncc4)nc(-c4ccc(S(C)(=O)=O)cc4C)n3C)ccc2c1
3. Cl.Cl.Oc1cc(-c2nc(-c3ccccc3)[nH]c2-c2ccncc2)ccc1Cl.Oc1cc(-c2nc(-c3ccccc3)[nH]c2-c2ccncc2)ccc1Cl

[reply]
1: 48.9 nM; 2: 803 nM; 3: 373 nM

====

system: ULK1; design: species or system human, MV4-11 + K-562 + COLO205 + SK-N-BE2 + OVCAR-8; conditions: read-out: apparent Kd; compound concentrations:100 nM and 1000 nM (sheet 'Samples'); n = 1
measured_endpoint: potency estimated from few doses (nM)
Answers are plain numbers, in nM.

Before answering, review these 3 worked examples.
compound	potency estimated from few doses (nM)
CN1C[C@@H]2Cn3c(c(C4=C(c5cn(C)c6ccccc56)C(=O)NC4=O)c4ccccc43)C[C@H]2C1.Cl	768
CN(C)CC(O)COc1ccc(Nc2nccc(-c3cnn4nc(N5CCOCC5)ccc34)n2)cc1 (stereo not shown) [GW767488X]	793
O=C1NC(=O)C(N2CCc3ccccc32)=C1c1ccccc1Cl	305

Then this compound:
[ask] What value of potency estimated from few doses has been recorded for this entry: Cl.Cn1c(=O)c(Cc2ccc(F)cc2F)cc2cnc(NC3CCOCC3)nc21
[reply] 1550

This collection of values is drawn from paper PMC11062922.
